Tested on: HCT116 MTAP-/-
Test: Inhibition of cellular proliferation (Cell Titer Glo), HCT116 MTAP-/-
Assay type: cell-based, human
Settings: Homo sapiens, HCT-116, 96 h, Table 5a, 4 days, read-out: 4 Day Relative Growth Inhibition (MTAP −/−)
Description: Test compound impact on cancer cell growth was assessed by treating cancer cells with compound for 4 days and then measuring proliferation using an ATP-based cell proliferation readout (Cell Titer Glo, Promega Corporation). In a typical assay an isogenic pair of HCT116 human colon carcinoma cell lines which vary only in MTAP deletion status (HCT116 MTAP+/+ and HCT116 MTAP−/−) were plated in 96-well dishes at appropriate cell density. […]
PROPERTY MEASURED: IC50

// each compound listed below needs its IC50
1. CCOc1cnc2c(n1)N(c1ccc(OC(F)F)cc1)C(=O)N(c1ccc3nn(C)cc3c1)C2 [Example 183]
2. CCOc1ccc2c(n1)N(c1ccc(OC(F)F)cc1)C(=O)N(c1ccc3nn(C)cc3c1)C2 [Example 131]

Found:
100 to 1000 nM
100 to 1000 nM
